System: RAW 264.7 cells
Assay: Cell viability (CellTiter 96 AQueous One) of LPS-challenged RAW 264.7 cells
Assay type: cell-based, mouse
Design: key: NS=not significant; a “+” sign=anti-inflammatory or increased cell numbers; a “−” sign=cell toxicity or pro-inflammatory
Details: 30 μM
Recorded endpoint: Viability

Guide cases for Viability, answers given:
Nc1ccc2c(c1)C(=O)N(C1CC=CNC1=O)C2 (stereo not shown) :: NS
O=C1c2cccc([N+](=O)[O-])c2CN1[C@@H]1C[C@H]2CC[C@@H]1C2 :: −
Nc1ccc2c(c1)C(=O)N(C1=CNC(=O)CC1)C2 :: NS
O=C1c2ccccc2CN1C12CC3CC(CC1C3)C2 :: −
Nc1cccc2c1CN([C@H]1C[C@H]3CC[C@@H]1C3)C2=O :: NS

# Viability of O=C1c2ccccc2C(=O)N1c1nc2ccc(C(F)(F)F)cc2s1 = NS

For this compound ( O=C1CCC(N2Cc3ccccc3C2=O)C(=O)N1CSC(=S)NC1CCCCC1 (stereo not shown) ), measured Viability is NS

// sample Nc1cccc2c1CN(C13CC4CC(CC(C4)C1)C3)C2=O , its Viability was NS

Documented Viability of Nc1cccc2c1CN(C1CCC(=S)NC1=O)C2=S (stereo not shown) : NS

Value of Viability reported for the compound S=C1c2ccccc2CN1C12CC3CC(CC1C3)C2 is NS

Looking up CC1(C)[C@@H]2CC[C@H](CN3Cc4c(N)cccc4C3=O)[C@H]1C2 , I found its Viability recorded as NS

Entry c1ccc2c(c1)CN=C2C1=NCc2ccccc21 — recorded Viability = +

Per the record, O=C1c2ccccc2CN1C12CC3CC(CC(O)(C3)C1)C2 has Viability of NS

----------
System: RAW 264.7 cells
Assay: Cell viability (CellTiter 96 AQueous One) of LPS-challenged RAW 264.7 cells
Type: cell-based, mouse
Parameters: key: NS=not significant; a “+” sign=anti-inflammatory or increased cell numbers; a “−” sign=cell toxicity or pro-inflammatory
Conditions: 10 μM
Recorded endpoint: Viability

Consider the worked cases shown below.
O=C1NC(=S)CCC1N1C(=O)c2cccc([N+](=O)[O-])c2C1=O (stereo not drawn) :: NS
O=C1CCC(N2C(=O)c3cccc([N+](=O)[O-])c3C2=O)C(=O)N1 (stereo not drawn) :: NS
Nc1cccc2c1CN(C1CCC(=S)NC1=O)C2=S (stereo not drawn) :: NS
O=C1c2ccccc2CN1C12CC3CC(CC(O)(C3)C1)C2 :: NS
O=C1c2ccccc2CN1C12CC3CC(CC(C3)C1)C2 :: NS
Nc1cccc2c1CN(C13CC4CC(CC(C4)C1)C3)C2=O :: NS
CC(N1Cc2c(cccc2[N+](=O)[O-])C1=S)C12CC3CC(CC(C3)C1)C2 (stereo not drawn) :: NS
Nc1cccc2c1CN(CC13CC4CC(CC(C4)C1)C3)C2=O :: NS
O=C1c2cccc(O)c2C(=O)N1c1nc2ccc(C(F)(F)F)cc2s1 :: NS
O=C1CCC(N2Cc3ccccc3C2=O)C(=O)N1CSC(=S)NC1CCCCC1 (stereo not drawn) :: NS

Moving on to the next molecule.
Viability reading for CC1(C)[C@@H]2CC[C@]1(C)[C@@H](N1Cc3c(N)cccc3C1=O)C2 : NS

----------
Test system: RAW 264.7 cells
Test: Cell viability (CellTiter 96 AQueous One) of LPS-challenged RAW 264.7 cells
Format: cell-based, mouse
Set-up: key: NS=not significant; a “+” sign=anti-inflammatory or increased cell numbers; a “−” sign=cell toxicity or pro-inflammatory
Conditions: 10 μM
Recorded endpoint: Viability

Solved cases (6 shown):
CC1(C)[C@@H]2CC[C@H](CN3C(=O)C4C5C=CC(C5)C4C3=O)[C@H]1C2 (stereo partly drawn) [Compound 113] :: −
S=C1c2ccccc2CN1C12CC3CC(CC1C3)C2 :: NS
C[C@@H]1[C@@H](N2Cc3c(N)cccc3C2=O)C[C@H]2C[C@@H]1C2(C)C :: NS
Nc1cccc2c1CN(C1C3CC4CC(C3)CC1C4)C2=O (stereo not drawn) :: NS
C[C@@H]1[C@@H](N2C=C3C(=CC=C/C3=N\OO)C2=O)C[C@H]2C[C@@H]1C2(C)C :: NS
Nc1ccc2c(c1)C(=O)N(C1=CNC(=O)CC1)C2 :: NS

So for CC1(C)S[C@@H]2[C@H](N3Cc4ccccc4C3=O)C(=O)N2[C@H]1C(=O)O , the logged Viability turned out to be NS

Documented Viability of O=C1c2cccc([N+](=O)[O-])c2CN1c1nc2ccc(C(F)(F)F)cc2s1 : NS

The compound listed as O=C1CCC(N2Cc3ccccc3C2=O)C(=O)N1CSC(=S)N1CCCCC1 (stereo not drawn) shows Viability equal to NS

----------
Tested on: nitrite levels in the culture media
Test: Nitrite level (Griess Reagent System) in LPS-challenged RAW 264.7 cells
Format: cell-based, mouse
Parameters: key: NS=not significant; a “+” sign=anti-inflammatory or increased cell numbers; a “−” sign=cell toxicity or pro-inflammatory
Conditions: 1 μM; LPS 30 or 60 ng/mL, 24 h
Recorded endpoint: Nitrite

O=C1c2ccccc2CN1c1ccc(C(F)(F)F)cc1 [Compound 68] :: NS
O=C1c2cccc(O)c2C(=O)N1c1nc2ccc(C(F)(F)F)cc2s1 [Compound 61] :: NS
CC1(C)[C@@H]2CC[C@]1(C)[C@@H](N1Cc3c(cccc3[N+](=O)[O-])C1=O)C2 [Compound 96] :: +
O=C1c2ccccc2CN1C12CC3CC(CC(O)(C3)C1)C2 [Compound 86] :: NS

Next, consider the following compound.
Reported Nitrite ( O=C1c2cccc([N+](=O)[O-])c2CN1C1C2CC3CC(C2)CC1C3 (centres unmarked) [Compound 82] ) = +

----------
Test system: RAW 264.7 cells
Experiment: Cell viability (CellTiter 96 AQueous One) of LPS-challenged RAW 264.7 cells
Assay type: cell-based, mouse
Parameters: key: NS=not significant; a “+” sign=anti-inflammatory or increased cell numbers; a “−” sign=cell toxicity or pro-inflammatory
Details: 60 μM
Recorded endpoint: Viability

Worked cases, answers included:
C[C@H]1[C@H](N2C(=O)C3CC=CCC3C2=O)C[C@@H]2C[C@H]1C2(C)C (some centres unmarked) :: −
O=C1c2cccc([N+](=O)[O-])c2C(=O)N1C1CCC(=S)NC1=S (centres unmarked) :: NS
C[C@H]1[C@H](N2C(=O)C3C4C=CC(C4)C3C2=O)C[C@@H]2C[C@H]1C2(C)C (some centres unmarked) :: −
CC1(C)[C@@H]2CC[C@]1(C)[C@@H](N1C(=O)C3C4C=CC(C4)C3C1=O)C2 (some centres unmarked) :: −
O=C1CCC(N2C(=O)c3cccc([N+](=O)[O-])c3C2=O)C(=O)N1 (centres unmarked) :: NS

The compound listed as CC1(C)[C@@H]2CC[C@H](CN3C(=O)C4C5C=CC(C5)C4C3=O)[C@H]1C2 (some centres unmarked) [Compound 113] has a reported Viability of −

Looking up CC1(C)[C@@H]2CC[C@H](CN3C(=O)C4C5C=CC(C5)C4C3=O)[C@H]1C2 (some centres unmarked) [Compound 114] , I found its Viability recorded as −

Form field Viability, entry CC1(C)[C@@H]2CC[C@]1(C)[C@@H](N1C(=O)C3CC=CCC3C1=O)C2 (some centres unmarked) : −

----------
Test system: RAW 264.7 cells
Assay: Cell viability (CellTiter 96 AQueous One) of LPS-challenged RAW 264.7 cells
Type: cell-based, mouse
Set-up: key: NS=not significant; a “+” sign=anti-inflammatory or increased cell numbers; a “−” sign=cell toxicity or pro-inflammatory
Settings: 30 μM
Recorded endpoint: Viability

Some compounds with recorded Viability:
O=C1c2cccc([N+](=O)[O-])c2CN1C1C2CC3CC(C2)CC1C3 (stereo not drawn) :: −
O=C1c2ccccc2CN1C12CC3CC(CC(C3)C1)C2 :: NS
CC1(C)[C@@H]2CC[C@]1(C)[C@@H](N1Cc3c(N)cccc3C1=O)C2 :: NS
O=C1CCCC(=O)N1CN1C(=O)CCC(N2Cc3ccccc3C2=O)C1=O (stereo not drawn) :: NS
CC1(C)[C@@H]2CC[C@H](CN3C(=O)C4C5C=CC(C5)C4C3=O)[C@H]1C2 (stereo partly drawn) [Compound 114] :: −
Nc1cccc2c1CN(C13CC4CC(CC1C4)C3)C2=O :: NS
CC1(C)[C@@H]2CC[C@@]1(C)[C@@H](N1C(=O)C3C4C=CC(C4)C3C1=O)C2 (stereo partly drawn) :: −
C[C@H]1[C@H](N2Cc3c(N)cccc3C2=O)C[C@@H]2C[C@H]1C2(C)C :: +

Notebook: CC1(C)S[C@@H]2[C@H](N3Cc4ccccc4C3=O)C(=O)N2[C@H]1C(=O)O , Viability read as NS

Viability reading for Nc1cccc2c1CN(C1C3CC4CC(C3)CC1C4)C2=O (stereo not drawn) : NS

For record FC(F)(F)c1ccnc(/N=C2/c3ccccc3CN2c2cc(C(F)(F)F)ccn2)c1 the listed Viability is NS

Sure, the documented Viability for C[C@@H]1[C@@H](N2C=C3C(=CC=C/C3=N\OO)C2=O)C[C@H]2C[C@@H]1C2(C)C is −

For reference, reported Viability for Nc1cccc2c1CN(C13CC4CC(CC(O)(C4)C1)C3)C2=O stands at NS

Record O=C1NC(=S)CCC1N1C(=O)c2cccc([N+](=O)[O-])c2C1=O (stereo not drawn) . Reported Viability: NS

Viability measured on C[C@H]1[C@H](N2C(=O)C3C4C=CC(C4)C3C2=O)C[C@@H]2C[C@H]1C2(C)C (stereo partly drawn) = −

Just so you know, measured Viability for O=C1c2cccc(O)c2C(=O)N1c1nc2ccc(C(F)(F)F)cc2s1 came out at −

Viability recorded for this compound, O=C1CCC(N2Cc3ccccc3C2=O)C(=O)N1CSC(=S)N1CCCCC1 (stereo not drawn) , is +

Lab book: Viability of CC(N1Cc2c(N)cccc2C1=O)C12CC3CC(CC(C3)C1)C2 (stereo not drawn) noted as NS
